Test system: Abutilon theophrasti
assay_remarks: Herbicidal activity against two to three-leaf stage Abutilon theophrasti (velvetleaf) assessed as inhibition of plant growth at 450 g/ha in greenhouse by post-emergence herbicidal activity assay
Assay type: functional
setup_conditions: read-out: GI
# cutoff 80% applies to inhibition of growth at 450 g/ha; >= gives 1 (yes), < gives 0 (no)

Completed entries (count: 3):
>>> class("COP(=O)(OC)C(OC(=O)COc1ccc(F)cc1F)c1cccs1 (stereo not drawn)")
"0 (no)"
>>> class("COP(=O)(OC)C(OC(=O)COc1cccc(Cl)c1Cl)c1cccs1 (stereo not drawn)")
"0 (no)"
>>> class("COP(=O)(OC)C(OC(=O)COc1cc(Cl)c(Cl)cc1Cl)c1cccs1 (stereo not drawn)")
"1 (yes)"

Task: Reported inhibition of growth at 450 g/ha at or above 80%? COP(=O)(OC)C(OC(=O)COc1ccc(Cl)cc1)c1cccs1 (stereo not drawn)
Result: 1 (yes)

Task: Also COP(=O)(OC)C(OC(=O)COc1cccc(C)c1C)c1cccs1 (stereo not drawn) ?
Result: 0 (no)

Task: Also COP(=O)(OC)C(OC(=O)COc1ccc(Cl)cc1Cl)c1cccs1 (stereo not drawn) ?
Result: 1 (yes)

Task: Also COP(=O)(OC)C(OC(=O)COc1ccc(Br)cc1)c1cccs1 (stereo not drawn) ?
Result: 0 (no)

Task: Also COP(=O)(OC)C(OC(=O)COc1ccccc1Cl)c1cccs1 (stereo not drawn) ?
Result: 0 (no)

====

assay_remarks: Toxicity in percutaneously dosed Rattus norvegicus (rat)
Type: organism-based
setup_conditions: in vivo, topical or ocular
measurement_kind: LD50

Task: For COP(=O)(OC)C(OC(=O)COc1ccc(Cl)cc1Cl)c1ccco1 (stereo unspecified) , what is its reported LD50?
Result: > 2000 mg/kg

====

So I've got a bunch of compounds here, and I need their inhibition of growth at 450 g/ha values.
Test system: Brassica rapa subsp. oleifera
assay_remarks: Herbicidal activity against Brassica rapa subsp. oleifera assessed as inhibition of rape root growth at 450 g/ha by pre-emergence herbicidal activity assay
Type: functional
setup_conditions: read-out: GI
Give bare numbers, in %.

Sample records with inhibition of growth at 450 g/ha:
>>> reported_value("O=C(O)COc1ccc(Cl)cc1Cl")
98
>>> reported_value("COP(=O)(OC)C(O)c1ccco1 (stereo not given)")
25
>>> reported_value("COP(=O)(OC)C(OC(=O)COc1ccc(Cl)cc1Cl)c1ccco1 (stereo not given)")
94
>>> reported_value("COP(=O)(O)C(O)c1ccco1 (stereo not given)")
23

For every item below, please supply its inhibition of growth at 450 g/ha.
1. COP(=O)(OC)C(C)=O [DIMETHYL ACETYLPHOSPHONATE]
2. COP(=O)(O)C(=O)c1ccco1
3. COP(=O)(OC)C(=O)c1ccco1
4. COP(=O)(OC)C(C)OC(=O)COc1ccc(Cl)cc1Cl (stereo not given)
5. COP(=O)(OC)C(C)O (stereo not given) [DIMETHYL 1-HYDROXYETHYLPHOSPHONATE]
6. COP(=O)([O-])C(OC(=O)COc1ccc(Cl)cc1Cl)c1ccco1.[Na+] (stereo not given)

Result:
34
20
56
96
36
96

====

System: Eclipta prostrata
assay_remarks: Herbicidal activity against two to three-leaf stage Eclipta prostrata assessed as inhibition of plant growth at 450 g/ha in greenhouse by post-emergence herbicidal activity assay
Assay type: functional
setup_conditions: read-out: GI
# cutoff 80% applies to inhibition of growth at 450 g/ha; >= gives met, < gives not met

Completed entries (count: 6):
>>> class("COP(=O)(OC)C(OC(=O)COc1ccc(Cl)cc1)c1cccs1 (stereo unspecified)")
"not met"
>>> class("COP(=O)(OC)C(OC(=O)COc1ccc(Cl)cc1F)c1cccs1 (stereo unspecified)")
"met"
>>> class("COP(=O)(OC)C(OC(=O)COc1ccc(Cl)cc1C)c1cccs1 (stereo unspecified)")
"met"
>>> class("COP(=O)(OC)C(C)OC(=O)COc1ccc(Cl)cc1Cl (stereo unspecified)")
"not met"
>>> class("COP(=O)(OC)C(OC(=O)COc1ccc(Cl)c(C)c1)c1cccs1 (stereo unspecified)")
"not met"
>>> class("COP(=O)(OC)C(OC(=O)COc1cccc(C)c1C)c1cccs1 (stereo unspecified)")
"not met"

Next item in the queue.
Task: Reported inhibition of growth at 450 g/ha at or above 80%? COP(=O)(OC)C(OC(=O)COc1ccc(Br)cc1)c1cccs1 (stereo unspecified)
Result: not met

====

Test system: Amaranthus retroflexus
assay_remarks: Herbicidal activity against 2 to 3 leaf stage Amaranthus retroflexus assessed as inhibition of plant growth at 450 g/ha in greenhouse by postemergence herbicidal activity assay
Assay type: functional
setup_conditions: post-emergence, read-out: GI
measurement_kind: inhibition of growth at 450 g/ha (%)
Answers are plain numbers, in %.

Sample records with inhibition of growth at 450 g/ha:
>>> reported_value("COP(=O)(O)C(O)c1ccco1 (stereo unspecified)")
0
>>> reported_value("COP(=O)(OC)C(OC(=O)COc1cccc(Cl)c1Cl)c1cccs1 (stereo unspecified)")
60
>>> reported_value("COP(=O)(OC)C(OC(=O)COc1ccc(Cl)cc1Cl)c1ccco1 (stereo unspecified)")
100
>>> reported_value("COP(=O)(OC)C(OC(=O)COc1ccc(Cl)c(C)c1)c1cccs1 (stereo unspecified)")
60

For every item below, please supply its inhibition of growth at 450 g/ha.
1. COP(=O)(OC)C(OC(=O)COc1ccccc1Cl)c1cccs1 (stereo unspecified)
2. COP(=O)(OC)C(OC(=O)COc1ccc(F)cc1Cl)c1cccs1 (stereo unspecified)

Result:
[50, 100]

For every item below, please supply its inhibition of growth at 450 g/ha.
1. O=C(O)COc1ccc(Cl)cc1Cl [2,4-DICHLOROPHENOXYACETIC ACID]
2. COP(=O)(OC)C(OC(=O)COc1cccc(C)c1C)c1cccs1 (stereo unspecified)
3. COP(=O)(OC)C(OC(=O)COc1ccc(C#N)cc1)c1cccs1 (stereo unspecified)
4. COP(=O)([O-])COC(=O)COc1ccc(Cl)cc1Cl.[Na+]
5. COP(=O)(OC)C(OC(=O)COc1ccc(F)cc1F)c1cccs1 (stereo unspecified)

Result:
[100, 40, 40, 92, 70]

====

assay_remarks: Toxicity in orally dosed Rattus norvegicus (rat)
Format: organism-based
setup_conditions: in vivo, po
measurement_kind: LD50 (mg/kg)
One number for each entry, in mg/kg.

Task: For COP(=O)(OC)C(OC(=O)COc1ccc(Cl)cc1Cl)c1ccco1 (stereo unspecified) , what is its reported LD50?
Result: 2700

====

Tested on: Eclipta prostrata
assay_remarks: Herbicidal activity against two to three-leaf stage Eclipta prostrata assessed as inhibition of plant growth at 450 g/ha in greenhouse by post-emergence herbicidal activity assay
Assay type: functional
setup_conditions: read-out: GI
So I've got a bunch of compounds here, and I need their inhibition of growth at 450 g/ha values.
Numbers only, in %.

Sample records with inhibition of growth at 450 g/ha:
>>> reported_value("COP(=O)(OC)C(OC(=O)COc1cc(Cl)c(Cl)cc1Cl)c1cccs1 (stereo not drawn)")
50
>>> reported_value("COP(=O)(OC)C(OC(=O)COc1ccc(C#N)cc1)c1cccs1 (stereo not drawn)")
60

Task: For COP(=O)(OC)C(OC(=O)COc1ccc(F)cc1Cl)c1cccs1 (stereo not drawn) , what is its reported inhibition of growth at 450 g/ha?
Result: 85

====

System: Oryza sativa
assay_remarks: Herbicidal activity against two to three-leaf stage Oryza sativa (rice) assessed as inhibition of plant growth at 450 g/ha in greenhouse by postemergence herbicidal activity assay
Type: organism-based
setup_conditions: in vivo, other
So I've got a bunch of compounds here, and I need their growth inhibition (GI) values.
One number for each entry, in %.

Sample records with growth inhibition (GI):
>>> reported_value("CCCC(OC(=O)COc1ccc(Cl)cc1Cl)P(=O)([O-])OC.[Na+] (stereo not drawn)")
22
>>> reported_value("COP(=O)([O-])C(OC(=O)COc1ccc(Cl)cc1Cl)c1ccco1.[Na+] (stereo not drawn)")
45
>>> reported_value("COP(=O)(OC)C(OC(=O)COc1cccc(C(F)(F)F)c1)c1ccccn1 (stereo not drawn)")
0

For every item below, please supply its growth inhibition (GI).
1. CCC(OC(=O)COc1ccc(Cl)cc1Cl)P(=O)([O-])OC.[Na+] (stereo not drawn)
2. COP(=O)([O-])COC(=O)COc1ccc(Cl)cc1Cl.[Na+]
3. COP(=O)(OC)C(OC(=O)COc1ccc(Cl)cc1Cl)c1ccco1 (stereo not drawn)
4. COP(=O)(OC)C(C)OC(=O)COc1ccc(Cl)cc1Cl (stereo not drawn) [CLACYFOS]
5. COP(=O)([O-])C(C)OC(=O)COc1ccc(Cl)cc1Cl.[Na+] (stereo not drawn)

Result:
1: 27; 2: 12; 3: 10; 4: 0; 5: 27
